- Experimental system: chimeric Caspase-9 polypeptide
- Sequence (P62942 2-108 F37V limits assumed): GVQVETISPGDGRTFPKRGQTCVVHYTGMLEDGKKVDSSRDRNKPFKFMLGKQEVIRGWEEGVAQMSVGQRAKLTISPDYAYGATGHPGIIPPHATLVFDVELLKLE
- Measurement notes: Caspase-9 mutant classes and basal activity (Table 5)
- Assay type: cell-based
- Particulars: Caspase-9 mutant class; ligand IC50 compared with unmodified chimeric Caspase-9
Measurement kind: IC50

## Task Which IC50 is listed for D330A-S144A (protein) GFGDVGALEALRGNADLAYILSMEPCGHCLIINNVNFCRESGLRTRTGSNIDCEKLRRRFSSLHFMVEVKGDLTAKKMVLALLELARQDHGALDCCVVVILSHGCQASHLQFPGAVYGTDGCPVSVEKIVNIFNGTSCPSLGGKPKLFFIQACGGEQKDHGFEVASTSPEDESPGSNPEPDATPFQEGLRTFDQLAAISSLPTPSDIFVSYSTFPGFVSWRDPKSGSWYVETLDDIFEQWAHSEDLQSLLLRVANAVSVKGIYKQMPGCFNFLRKKLFFKTSASRA ?
## Result higher IC50

## Task Which IC50 is listed for N405Q-T317S (protein) GFGDVGALESLRGNADLAYILSMEPCGHCLIINNVNFCRESGLRTRTGSNIDCEKLRRRFSSLHFMVEVKGDLTAKKMVLALLELARQDHGALDCCVVVILSHGCQASHLQFPGAVYGTDGCPVSVEKIVNIFNGTSCPSLGGKPKLFFIQACGGEQKDHGFEVASTSPEDESPGSNPEPDASPFQEGLRTFDQLDAISSLPTPSDIFVSYSTFPGFVSWRDPKSGSWYVETLDDIFEQWAHSEDLQSLLLRVANAVSVKGIYKQMPGCFQFLRKKLFFKTSASRA ?
## Result higher IC50

## Task Which IC50 is listed for D330A-S183A (protein) GFGDVGALESLRGNADLAYILSMEPCGHCLIINNVNFCRESGLRTRTGANIDCEKLRRRFSSLHFMVEVKGDLTAKKMVLALLELARQDHGALDCCVVVILSHGCQASHLQFPGAVYGTDGCPVSVEKIVNIFNGTSCPSLGGKPKLFFIQACGGEQKDHGFEVASTSPEDESPGSNPEPDATPFQEGLRTFDQLAAISSLPTPSDIFVSYSTFPGFVSWRDPKSGSWYVETLDDIFEQWAHSEDLQSLLLRVANAVSVKGIYKQMPGCFNFLRKKLFFKTSASRA ?
## Result higher IC50
